system: Haemophilus influenzae; assay: Antibacterial activity against Haemophilus influenzae ATCC 49247; format: functional
experimentalEndpoint: MIC (µg/mL)
Your answer should be a plain number; it is taken to be in µg/mL.

Example entries begin here.
CNc1cc(F)cc2c1[nH]c1nc(CNC(=O)c3cocn3)nc(N3CCC(N)C3)c12 (centres undefined)    1
CNc1cc(F)cc2c1[nH]c1nc(CNC(=O)c3cnco3)nc(N3CCC(N(C)C)C3)c12 (centres undefined)    4
CNc1cc(F)cc2c1[nH]c1nc(CNC(=O)c3cnco3)nc(N3CCC(NC)C3)c12 (centres undefined)    4

Here is the next item to consider.
Entry CNc1cc(F)cc2c1[nH]c1nc(CNC(=O)c3cnco3)nc(N3CCC(N)C3)c12 (centres undefined) ; MIC = 1
